Kindly state Primary Assay (m +/− sd), cell viability for each of the entries shown.
System: merlin-null Schwann cells
Test: Primary assay: live cell protease assay (CellTiter-Fluor), cell viability
Details: 10 uM; 8 replicates, 384 well plate; mean and SD of four assays, two independently derived merlin-null Schwann cell lines at P13-23
Counter-ions that a name gives are not always drawn.

The following molecules each have a reported value; give each one's Primary Assay (m +/− sd), cell viability.
1. O=C1c2c(O)ccc(O)c2C(=O)c2c(NCCNCCO)ccc(NCCNCCO)c21 [Mitoxantrone dihydrochloride]
2. O=C1NC(=O)/C(=C/c2ccc3nccnc3c2)S1 [AS605240]
3. O=C(O)c1ccc2ccccc2c1O.OCc1cc(C(O)CNCCCCCCOCCCCc2ccccc2)ccc1O (stereo not drawn) [Salmeterol xinafoate, salmeterol xinafoate]

Result string:
39 +/− 6 % of DMSO Control
35 +/− 2 % of DMSO Control
57 +/− 9 % of DMSO Control

====

System: normal nf2^flox2/flox2 Schwann cells
Test: Selectivity assay: cell viability of normal Schwann cells
Settings: 10 uM; one assay with mouse nf2^flox2/flox2 Schwann cells at P2
Structures can show the parent of a compound that is named as a salt.
assay.readout: Selectivity Assay, cell viability

1. CC(C)c1ccc2c(c1)c(SC(C)(C)C)c(CC(C)(C)C(=O)O)n2Cc1ccc(Cl)cc1 [L663,536, sodium salt hydrate] : 31 % of DMSO Control

The following compounds each have a reported value; give each one's Selectivity Assay, cell viability.
1. O=C(CCCN1CCC2(CC1)C(=O)NCN2c1ccccc1)c1ccc(F)cc1
2. COCC(=O)O[C@]1(CCN(C)CCCc2nc3ccccc3[nH]2)CCc2cc(F)ccc2[C@@H]1C(C)C [Mibefradil dihydrochloride hydrate, mibefradil]
3. CC[C@H](C)C(=O)O[C@H]1CCC=C2C=C[C@H](C)[C@H](CC[C@@H]3C[C@@H](O)CC(=O)O3)[C@H]21
4. CN1CCN(CCCN2c3ccccc3Sc3ccc(C(F)(F)F)cc32)CC1 [Trifluoperazine dihydrochloride, trifluoperazine]

Result string:
85 % of DMSO Control
32 % of DMSO Control
74 % of DMSO Control
47 % of DMSO Control

====

System: normal nf2^flox2/flox2 Schwann cells
Test: Selectivity assay: cell viability of normal Schwann cells
Details: 10 uM; one assay with mouse nf2^flox2/flox2 Schwann cells at P2
Counter-ions that a name gives are not always drawn.
assay.readout: Selectivity Assay, cell viability

Recorded results for 3 compounds are shown here.
1) O=C(O)c1ccc2ccccc2c1O.OCc1cc(C(O)CNCCCCCCOCCCCc2ccccc2)ccc1O (stereo not shown) [Salmeterol xinafoate, salmeterol xinafoate] : 57 % of DMSO Control
2) C[C@@]12C(=O)OC(=O)[C@]1(C)[C@H]1CC[C@@H]2O1 [Cantharidin, cantharidin] : 78 % of DMSO Control
3) N#C/C(=C\c1ccc(-c2cc(Cl)ccc2Cl)o1)C(=O)Nc1cccc2ncccc12 [AGK2] : 42 % of DMSO Control

The following compounds each have a reported value; give each one's Selectivity Assay, cell viability.
1. O=C1c2c(O)ccc(O)c2C(=O)c2c(NCCNCCO)ccc(NCCNCCO)c21 [Mitoxantrone dihydrochloride]
2. CSc1ccc2c(c1)N(CCC1CCCCN1C)c1ccccc1S2 (stereo not shown) [Thioridazine hydrochloride, thioridazine]
3. CCN(CC)CCCCNc1ncc2cc(-c3c(Cl)cccc3Cl)c(NC(=O)NC(C)(C)C)nc2n1 [PD-161570]
4. CC[n+]1c(C=CC=C2N(C)c3ccccc3C2(C)C)sc2ccccc21.[I-] [AC-93253 iodide]

Result string:
34 % of DMSO Control
33 % of DMSO Control
47 % of DMSO Control
28 % of DMSO Control

====

Kindly state Orthogonal Assay Average of two, cell viability for each of the entries shown.
System: merlin-null Schwann cells
Experiment: Orthogonal ATP-based luminescence cell viability assay (CellTiter-GLO)
Conditions: 10 uM; average of two assays with one cell line at P18-23
Where a name gives a salt, the structure may show the parent alone.

1) O=C1Nc2cc(Br)ccc2C1C1Nc2ccccc2C1NO (centres unmarked) : 0.8 % of DMSO Control
2) CC(C)c1ccc2c(c1)c(SC(C)(C)C)c(CC(C)(C)C(=O)O)n2Cc1ccc(Cl)cc1 [L663,536, sodium salt hydrate] : 0.1 % of DMSO Control
3) CC(C)(C)c1ccc(C(=O)CCCN2CCC(OC(c3ccccc3)c3ccccc3)CC2)cc1 : 0.1 % of DMSO Control
4) CC(C)(Sc1ccc(CCN(CCCCC2CCCCC2)C(=O)NC2CCCCC2)cc1)C(=O)O : 6.3 % of DMSO Control
5) O=C(CCCN1CCC2(CC1)C(=O)NCN2c1ccccc1)c1ccc(F)cc1 : 84.3 % of DMSO Control
6) O=C1c2c(O)ccc(O)c2C(=O)c2c(NCCNCCO)ccc(NCCNCCO)c21 [Mitoxantrone dihydrochloride] : 36.8 % of DMSO Control
7) OCCN1CCN(CCCN2c3ccccc3Sc3ccc(C(F)(F)F)cc32)CC1 [Fluphenazine dihydrochloride] : 45.6 % of DMSO Control

Query string: Any idea what Orthogonal Assay Average of two, cell viability was measured for "O=C(CCCN1CCC(O)(c2ccc(Cl)cc2)CC1)c1ccc(F)cc1" ?
Result string: 88.8 % of DMSO Control

====

Kindly state Primary Assay (m +/− sd), cell viability for each of the entries shown.
Tested on: merlin-null Schwann cells
Experiment: Primary assay: live cell protease assay (CellTiter-Fluor), cell viability
Conditions: 10 uM; 8 replicates, 384 well plate; mean and SD of four assays, two independently derived merlin-null Schwann cell lines at P13-23
Structures can show the parent of a compound that is named as a salt.

Recorded results for 3 molecules are shown here.
1. O=C1Nc2cc(Br)ccc2C1C1Nc2ccccc2C1NO (stereo not shown) [BIO, (2′Z,3′E)-6-Bromoindirubin-3′-oxime] : 20 +/− 8 % of DMSO Control
2. COc1ccc(Br)cc1S(=O)(=O)NC(=O)/C=C/c1ccccc1Cc1ccc2ccccc2c1 [L-798106] : 35 +/− 13 % of DMSO Control
3. CCN(CC)CCCCNc1ncc2cc(-c3c(Cl)cccc3Cl)c(NC(=O)NC(C)(C)C)nc2n1 [PD-161570] : 60 +/− 12 % of DMSO Control

Continue with the next molecule.
Query string: Any idea what Primary Assay (m +/− sd), cell viability was measured for Ic1ccccc1CNC1C2CCN(CC2)C1C(c1ccccc1)c1ccccc1 [L-703,606 oxalate salt hydrate] ?
Result string: 62 +/− 11 % of DMSO Control

====

Kindly state Primary Assay (m +/− sd), cell viability for each of the entries shown.
System: merlin-null Schwann cells
Assay: Primary assay: live cell protease assay (CellTiter-Fluor), cell viability
Conditions: 10 uM; 8 replicates, 384 well plate; mean and SD of four assays, two independently derived merlin-null Schwann cell lines at P13-23
Structures can show the parent of a compound that is named as a salt.

1. CCn1cnc2c(Nc3cccc(Cl)c3)nc(N[C@@H]3CCCC[C@@H]3N)nc21 (relative stereo) [CGP-74514A hydrochloride] : 35 +/− 7 % of DMSO Control
2. O=C(CCCN1CCC2(CC1)C(=O)NCN2c1ccccc1)c1ccc(F)cc1 : 90 +/− 6 % of DMSO Control
3. N#C/C(=C\c1ccc(-c2cc(Cl)ccc2Cl)o1)C(=O)Nc1cccc2ncccc12 : 65 +/− 14 % of DMSO Control
4. O=C1Nc2ccc(I)cc2C1=Cc1cc(Br)c(O)c(Br)c1 : 24 +/− 7 % of DMSO Control
5. CC[n+]1c(C=CC=C2N(C)c3ccccc3C2(C)C)sc2ccccc21.[I-] [AC-93253 iodide] : 41 +/− 6 % of DMSO Control
6. CC(C)c1ccc2c(c1)c(SC(C)(C)C)c(CC(C)(C)C(=O)O)n2Cc1ccc(Cl)cc1 [L663,536, sodium salt hydrate] : 16 +/− 3 % of DMSO Control
7. CN1CCN(CCCN2c3ccccc3Sc3ccc(C(F)(F)F)cc32)CC1 [Trifluoperazine dihydrochloride, trifluoperazine] : 78 +/− 6 % of DMSO Control
8. CSc1ccc2c(c1)N(CCC1CCCCN1C)c1ccccc1S2 (stereo not drawn) [Thioridazine hydrochloride, thioridazine] : 71 +/− 13 % of DMSO Control

The following compounds each have a reported value; give each one's Primary Assay (m +/− sd), cell viability.
1. C[C@@]12C(=O)OC(=O)[C@]1(C)[C@H]1CC[C@@H]2O1
2. CC[C@H](C)C(=O)O[C@H]1CCC=C2C=C[C@H](C)[C@H](CC[C@@H]3C[C@@H](O)CC(=O)O3)[C@H]21

Result string:
1: 34 +/− 14 % of DMSO Control; 2: 81 +/− 11 % of DMSO Control

The following compounds each have a reported value; give each one's Primary Assay (m +/− sd), cell viability.
1. CC(C)(C)c1ccc(C(=O)CCCN2CCC(OC(c3ccccc3)c3ccccc3)CC2)cc1
2. O=C(CCCN1CCC(O)(c2ccc(Cl)cc2)CC1)c1ccc(F)cc1
3. OCCN1CCN(CCCN2c3ccccc3Sc3ccc(C(F)(F)F)cc32)CC1 [Fluphenazine dihydrochloride]
4. CC(C)(Sc1ccc(CCN(CCCCC2CCCCC2)C(=O)NC2CCCCC2)cc1)C(=O)O
5. COCC(=O)O[C@]1(CCN(C)CCCc2nc3ccccc3[nH]2)CCc2cc(F)ccc2[C@@H]1C(C)C [Mibefradil dihydrochloride hydrate, mibefradil]

Result string:
1. 17 +/− 3 % of DMSO Control
2. 96 +/− 4 % of DMSO Control
3. 71 +/− 6 % of DMSO Control
4. 20 +/− 5 % of DMSO Control
5. 67 +/− 9 % of DMSO Control

This collection of values is drawn from patent US10105351B2.
